- Measured on: T1, human SPNS2 (human, UniProt Q8IVW8 1-549)
- T1 construct: S1P transporter; in Cell ELISA and S1P assays on Flp-in 293 cells that also express human SphK1; also called Spinster homolog 2; native type
- T1 sequence: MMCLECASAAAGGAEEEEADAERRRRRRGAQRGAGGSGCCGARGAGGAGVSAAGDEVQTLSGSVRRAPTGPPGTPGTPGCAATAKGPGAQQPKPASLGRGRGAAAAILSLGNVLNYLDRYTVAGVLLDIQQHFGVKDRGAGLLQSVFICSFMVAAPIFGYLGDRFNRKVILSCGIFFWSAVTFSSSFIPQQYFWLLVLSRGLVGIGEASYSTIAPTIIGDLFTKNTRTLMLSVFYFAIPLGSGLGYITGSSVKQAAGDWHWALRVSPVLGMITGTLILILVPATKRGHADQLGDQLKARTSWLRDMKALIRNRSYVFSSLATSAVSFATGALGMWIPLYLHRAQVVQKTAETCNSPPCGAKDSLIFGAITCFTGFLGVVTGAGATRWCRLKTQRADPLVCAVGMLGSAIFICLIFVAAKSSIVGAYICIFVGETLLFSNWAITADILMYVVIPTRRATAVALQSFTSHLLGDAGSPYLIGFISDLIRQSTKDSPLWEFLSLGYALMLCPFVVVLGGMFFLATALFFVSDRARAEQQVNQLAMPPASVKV
- Method: Cell ELISA
So I've got a bunch of binders here, and I need their Emax values.
# output: bare number, implied unit absorbance

# get_value(readout='Emax', item= 80-1104A (antibody, IgG2b, V domains shown) VH: EVQLVETGGGLVQPGSSLKLSCSTSGFTFSETWMSWVRQAPGKGLEWVGLIKDKNSNYEANYAESVKGRFTISRDDSKRRVYLQMYTLRDQDTATYYCTSHEDFYYYSSYYFDYWGQGVMVTVSS VL: DIVLTQSPATLSVTPGESVSLSCRASQGISTSIHWYQQKSNESPRLLIKYASQSMSGIPSRFSGSGSGTDFTLRINRVESEDFSVYYCQQSYNLPLTFGSGTKLEIKR )
1.83

# get_value(readout='Emax', item= 96-1403F (antibody, IgG2b, V domains shown) VH: EVQLVETGGGLVRPGSSLKLSCATSGFTFSDTWMSWVRQAPGKGLEWVALIKDKNSNSEANYAESIKGRFTISRDDSKSRVYLQMNTLRDQDTATYYCTRHEDFYYYSGYYFDYWGQGVMVTVSS VL: DIVLTQSPPTLSVTPGESVSLSCRASQGISTSIHWYQQRSNESPRLLIKYASQSIAGIPSRFSGSGSGTDFILSINRVESEDFSVYYCQQTYSLPLTFGPGTKLEVKR )
1.86

# get_value(readout='Emax', item= 37-0511F (antibody, IgG2b, V domains shown) VH: EVHLQQSGAALVRPRASVKLSCKVSGDSISRYYVHFVKQRPGQGLEWIGRIDPEDDTTKYSEKFKNRATLTADASSDTASLILSGLTSDDTATYFCSTLTGLDYWGQGVMVTVSS VL: DIQMTQSPPVLSTSVGDRVTLRCKPSQNVHSKLDWYQQKHGEAPKLLIYYTHNLQTGIPSRFSGSGSGTDYTLTISSLQPEDVATYYCFQYYSGWTFGGGTKLEMKR )
1.35

# get_value(readout='Emax', item= 50-0704C (antibody, IgG2b, V domains shown) VH: EVQLVGSGGGLVQPGRSMKLSCEASGFTFSNHYMAWVRQAPTKGLEWVATISTGGGNTYYRDSVKGRFTISRDNARSTLSLQMDSLRSEDTATYYCARQDYSNYMGGFAYWGQGTLVTVSS VL: QFVLTQPNSVSTNLGSTVKLSCTRSIGNIGNNYVNWYKQYEGRSPTTMIYRDDERPDGVPDRFSGSIDRSSNSALLTINSVQTEDEADYFCQSFSSGIFIFGGGTKLTVL )
1.82

# get_value(readout='Emax', item= 53-0707E (antibody, IgG2b, V domains shown) VH: EVQLQQSGAELVRPRTSVKLSCKVSGDSITRYYVHFVKQRPGQGLEWIGRIDPEDDTTKYSEKFKKKATLTADASSNTAYLIFSGLTSEDTATYFCSTLTGLDYWGQGVMVTVSS VL: DIQMTQSPPVLSTSVGDRVTLRCKASQNVHSKLDWYQQKHGEAPKLLIYYTHNLQTGIPSRFSGSGSGTDYTLTISSLQPEDVATYYCFQYYSGWTFGGGTKLEMKR )
1.62
